# Measurement notes: folding stability dG unfold (combined trypsin and chymotrypsin); higher = more stable
# if value of folding stability dG unfold reaches 1 kcal/mol, tag yes (1); if it stays below, tag no (0)

Examples with answers:
sequence_text="SAGGSAGGSAGGSKTYRIYFKDNNKVITVKSKEDLKAALEKAGYTISEEDLDKIVKIEPSAGGSAGGSAGGS [r4_104_TrROS_Hall]" label_class="yes (1)"
sequence_text="SAGGSAGGSAGNMWDQALRAAREAKDQGDEEVVIHFPPNMKNWVKEWAEDLGWPIKIQPTSAGGSAGGSAGG [r11_371_TrROS]" label_class="no (0)"

Prompt: Textbook exercise: given the entry SAGSIPELIREAFPSKVDRVEVTTEKLPNGTTKTTIKVYVDDPEVAERLAKEINELSGEPLENLTVTEESAG [r5_542_JUSTAS] , state whether its folding stability dG unfold is greater than or equal to 1 kcal/mol.
Response: no (0)

Prompt: Note, next up: SAGEVETRTLPDGSVEIRRVERDPNSDQEVETRERVTFDPATGTARVPREVYRGDRWETEERVIALPASAGG [r19_289_JUSTAS]
Response: no (0)

Prompt: Note, next up: SAGGSAMTAEEVEEKVREAFAALGVEAEVEVRESPEGGLEVLVVTGEDADLEEVKAALEELFGTDISAGGSA [r15_807_TrMRF]
Response: yes (1)

Prompt: Note, next up: SAGGMAIKDVRVEGGVLYVYRGDKLVAKIEPGAAQPPVLVRFPDGTVVAVPRSVALALNPETLEFFDVSAGG [r13_802_TrMRF]
Response: yes (1)

Prompt: Note, next up: SAGKSKTITLEIYNKETNIIIKIEIEINGDEVTIKVYAFNKDGKLIAKAEIKFNKKTKKLEIKIEIKKLSAG [r5_747_TrROS_Hall]
Response: yes (1)

Prompt: Note, next up: SAGGKKTVKIEIVLPKEELEELLKKLLEEAKKKGLKVEVKVELKEVEVEVNGKKKKVLVLKVEIKVEPSAGG [r13_974_TrROS_Hall]
Response: yes (1)

Prompt: Note, next up: SAGGSAGGSAGGSMVAYITTKGKKLEIEVPEDLPEEIKEELKKKGIPIESITFEEVEPESAGGSAGGSAGGS [r10_405_JUSTAS]
Response: no (0)
